The origin of these recorded values is patent US20140179681A1.

# Test system: epithelial carcinoma A431 cell line
# measurement_notes: MTT Cell Proliferation Assay, A431 cells
# Format: cell-based
# protocol_conditions: Homo sapiens, A-431, A431 cells, first value of cell; read-out: MTT Assay IC50(A431/MDBK): A431
Where a name gives a salt, the structure may show the parent alone.
The entries below come with measured IC50 values attached.
Answer with a number only, understood to be in µM.

Worked examples follow.
Hey, epithelial carcinoma A431 cell line data for "Cc1ccc2nc(Nc3nc(=O)c(Cc4ccccc4)c(C)[nH]3)nc(C)c2c1" : IC50 came out at 6.43

Entry "COc1ccc2c(C)nc(Nc3nc(C)cc(-c4ccccc4)n3)nc2c1" , epithelial carcinoma A431 cell line data, IC50 value: 12.9

Let me check: CCc1ccc2c(C)nc(Nc3nc(C)c(CCC(C)C)c(=O)[nH]3)nc2c1 [11771 + TFA] , system epithelial carcinoma A431 cell line, measured IC50 is 18.2

Switching to the query record.
Log: epithelial carcinoma A431 cell line, compound Cc1nc(Nc2nc(CSc3ccccn3)cc(=O)[nH]2)nc2ccccc12 [12623 + TFA] , IC50 = 37.2
